- TARGET OR SYSTEM: Kv1.3 (Homo sapiens, UniProt P22001)
- Sequence (P22001 whole entry): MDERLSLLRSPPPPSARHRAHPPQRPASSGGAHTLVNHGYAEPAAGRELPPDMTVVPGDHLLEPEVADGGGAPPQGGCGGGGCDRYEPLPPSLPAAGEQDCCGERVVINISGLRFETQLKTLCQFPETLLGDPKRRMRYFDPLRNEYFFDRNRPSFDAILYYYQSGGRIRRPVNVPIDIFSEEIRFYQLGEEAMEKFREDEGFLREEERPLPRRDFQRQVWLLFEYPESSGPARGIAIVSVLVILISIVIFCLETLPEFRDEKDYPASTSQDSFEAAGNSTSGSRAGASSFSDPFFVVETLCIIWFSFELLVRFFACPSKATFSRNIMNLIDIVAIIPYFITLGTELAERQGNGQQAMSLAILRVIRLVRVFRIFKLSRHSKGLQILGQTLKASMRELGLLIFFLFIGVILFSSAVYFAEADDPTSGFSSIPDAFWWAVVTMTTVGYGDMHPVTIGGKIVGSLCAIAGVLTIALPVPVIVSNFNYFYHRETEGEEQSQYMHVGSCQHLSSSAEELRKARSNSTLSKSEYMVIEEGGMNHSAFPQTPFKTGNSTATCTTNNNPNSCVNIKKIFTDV
- METHOD DESCRIPTION: Electrophysiology: planar patch-clamp of Kv1.3 currents, IC50 from steady state current amplitude
- TEST PARAMETERS: Kv1.3 electrophysiology, results according to Method D1, read-out: IC50 (Kv1.3 ephys steady state)
pIC50: −log10 of the molar value.
OUTCOME MEASURE: pIC50

Solved entries (count: 3):
COMPOUND | pIC50
CCS(=O)(=O)c1cccc(C(C2CC2)N(Cc2ccccn2)C(=O)C2CC2c2cccc(C(F)(F)F)c2)c1 (stereo not drawn) [Example 216] | 6.70 to 7.30
O=C([C@@H]1C[C@H]1c1ccc(F)cc1)N(Cc1cccnn1)[C@@H](c1ccc(OC(F)F)cc1)C1CC1 | > 7.30
CN1CCC(C(c2ccc(OC(F)F)cc2)N(Cc2ccc(F)cn2)C(=O)C2CC2c2ccc(F)cc2)CC1 (stereo not drawn) | 6.00 to 6.70

Under Kv1.3 (Homo sapiens, UniProt P22001): pIC50 value of CC(CC(=O)N(Cc1ccc(C(F)(F)F)nc1)C(C)c1ccc2c(c1)CCC2)c1ccc(F)cc1 (single isomer, unassigned) [Compound 40] ?
6.70 to 7.30

GET /values?readout=pIC50&system=Kv1.3 (Homo sapiens, UniProt P22001)&item= Cn1cc(CN(C(=O)C2CC2c2ccc(F)cc2)C(c2ccc(OC(F)F)cc2)C2CC2)cn1 (stereo not drawn)
> 7.30

Which pIC50 is reported with Kv1.3 (Homo sapiens, UniProt P22001) for this entry: CC(CC(=O)N(Cc1ccc(F)cn1)C(c1ccc(F)cc1)C1CCCO1)c1ccc(F)cc1 (stereo not drawn) ?
6.70 to 7.30
